# Test system: Staphylococcus aureus
# test.method.notes: Minimum inhibitory concentration required for the antibacterial activity against Staphylococcus aureus 25085
# Format: functional
result.type: MIC (µg/mL)
Supply the numeric figure in µg/mL, leaving out any unit text.

Look up MIC of Cc1onc(-c2ccccc2)c1C(=O)N[C@@H]1C(=O)N2[C@@H]1SC(C)(C)[C@@H]2C(=O)O and report it.
3.12

Look up MIC of CC1(C)S[C@@H]2[C@H](NC(=O)[C@H](N)c3ccccc3)C(=O)N2[C@H]1C(=O)O and report it.
50

Look up MIC of COc1cccc(OC)c1C(=O)N[C@@H]1C(=O)N2[C@@H]1SC(C)(C)[C@@H]2C(=O)O and report it.
6.25

Look up MIC of C[C@@H](O)[C@H]1C(=O)N2C(C(=O)[O-])=C(C(C)(C)C)O[C@H]12.[K+] and report it.
1.56

Look up MIC of CC1(C)S[C@@H]2[C@H](NC(=O)[C@H](NC(=O)N3CCN(S(C)(=O)=O)C3=O)c3ccccc3)C(=O)N2[C@H]1C(=O)O and report it.
50

Look up MIC of CO[C@@]1(NC(=O)Cc2cccs2)C(=O)N2C(C(=O)O)=C(COC(N)=O)CS[C@@H]21 and report it.
12.5

* * *

# Tested on: Staphylococcus aureus
# test.method.notes: Minimum inhibitory concentration required for the antibacterial activity against Staphylococcus aureus 25768
# Type: functional
Record form. Attribute: log10(MIC). Fill in for each entry.
Give log10 of MIC, with MIC taken in µg/mL.

Look up log10(MIC) of CC1(C)S[C@@H]2[C@H](NC(=O)[C@H](N)c3ccccc3)C(=O)N2[C@H]1C(=O)O and report it.
1.70

Look up log10(MIC) of CO[C@@]1(NC(=O)Cc2cccs2)C(=O)N2C(C(=O)O)=C(COC(N)=O)CS[C@@H]21 and report it.
1.10

Look up log10(MIC) of CC1(C)S[C@@H]2[C@H](NC(=O)[C@H](NC(=O)N3CCN(S(C)(=O)=O)C3=O)c3ccccc3)C(=O)N2[C@H]1C(=O)O and report it.
1.40

Look up log10(MIC) of O=C(O)c1cn(C2CC2)c2cc(N3CCNCC3)c(F)cc2c1=O and report it.
2.00

Look up log10(MIC) of COc1cccc(OC)c1C(=O)N[C@@H]1C(=O)N2[C@@H]1SC(C)(C)[C@@H]2C(=O)O and report it.
0.80

Look up log10(MIC) of Cc1onc(-c2ccccc2)c1C(=O)N[C@@H]1C(=O)N2[C@@H]1SC(C)(C)[C@@H]2C(=O)O and report it.
0.80

* * *

# System: Staphylococcus aureus
# test.method.notes: Minimum inhibitory concentration required for the antibacterial activity against Staphylococcus aureus 48N Munchen
# Type: functional
result.type: MIC (µg/mL)
Supply the numeric figure in µg/mL, leaving out any unit text.

Look up MIC of CO[C@@]1(NC(=O)Cc2cccs2)C(=O)N2C(C(=O)O)=C(COC(N)=O)CS[C@@H]21 and report it.
6.25

Look up MIC of O=C(O)c1cn(C2CC2)c2cc(N3CCNCC3)c(F)cc2c1=O and report it.
12.5

Look up MIC of CC1(C)S[C@@H]2[C@H](NC(=O)[C@H](NC(=O)N3CCN(S(C)(=O)=O)C3=O)c3ccccc3)C(=O)N2[C@H]1C(=O)O and report it.
12.5

Look up MIC of CC1(C)S[C@@H]2[C@H](NC(=O)[C@H](N)c3ccccc3)C(=O)N2[C@H]1C(=O)O and report it.
50

* * *

# System: Staphylococcus aureus
# test.method.notes: Minimum inhibitory concentration required for the antibacterial activity against Staphylococcus aureus 79B Innsbruck
# Type: functional
result.type: MIC (µg/mL)
Supply the numeric figure in µg/mL, leaving out any unit text.

Provide measured MIC on Staphylococcus aureus for CC1(C)S[C@@H]2[C@H](NC(=O)[C@H](N)c3ccccc3)C(=O)N2[C@H]1C(=O)O please.
50

Provide measured MIC on Staphylococcus aureus for CO[C@@]1(NC(=O)Cc2cccs2)C(=O)N2C(C(=O)O)=C(COC(N)=O)CS[C@@H]21 please.
25

Provide measured MIC on Staphylococcus aureus for Cc1onc(-c2ccccc2)c1C(=O)N[C@@H]1C(=O)N2[C@@H]1SC(C)(C)[C@@H]2C(=O)O please.
50

Provide measured MIC on Staphylococcus aureus for O=C(O)c1cn(C2CC2)c2cc(N3CCNCC3)c(F)cc2c1=O please.
100

Provide measured MIC on Staphylococcus aureus for CC1(C)S[C@@H]2[C@H](NC(=O)[C@H](NC(=O)N3CCN(S(C)(=O)=O)C3=O)c3ccccc3)C(=O)N2[C@H]1C(=O)O please.
50

Provide measured MIC on Staphylococcus aureus for COc1cccc(OC)c1C(=O)N[C@@H]1C(=O)N2[C@@H]1SC(C)(C)[C@@H]2C(=O)O please.
25

* * *

# Tested on: Staphylococcus aureus
# test.method.notes: Minimum inhibitory concentration required for the antibacterial activity against Staphylococcus aureus 41h Belgium
# Assay type: functional
Record form. Attribute: MIC. Fill in for each entry.
Supply the numeric figure in µg/mL, leaving out any unit text.

Look up MIC of CO[C@@]1(NC(=O)Cc2cccs2)C(=O)N2C(C(=O)O)=C(COC(N)=O)CS[C@@H]21 and report it.
1.56

Look up MIC of CC1(C)S[C@@H]2[C@H](NC(=O)[C@H](NC(=O)N3CCN(S(C)(=O)=O)C3=O)c3ccccc3)C(=O)N2[C@H]1C(=O)O and report it.
3.12

Look up MIC of O=C(O)c1cn(C2CC2)c2cc(N3CCNCC3)c(F)cc2c1=O and report it.
100

Look up MIC of C[C@@H](O)[C@H]1C(=O)N2C(C(=O)[O-])=C(C(C)(C)C)O[C@H]12.[K+] and report it.
12.5

Look up MIC of CC1(C)S[C@@H]2[C@H](NC(=O)[C@H](N)c3ccccc3)C(=O)N2[C@H]1C(=O)O and report it.
50
